Source of measurements: patent US6476022B1

molecular target: calcium channel (3H-nitrendipine binding, heart membranes) (Oryctolagus cuniculus); construct: from tissue; host or cells: rabbit heart (crude membrane pellet); assay: Assay for inhibition of nitrendipine binding (3H-nitrendipine, rabbit heart membranes); conditions: 3H-nitrendipine, compounds of Formula IIa (Table 2)
Sequence (P15381 whole entry, other chains not shown): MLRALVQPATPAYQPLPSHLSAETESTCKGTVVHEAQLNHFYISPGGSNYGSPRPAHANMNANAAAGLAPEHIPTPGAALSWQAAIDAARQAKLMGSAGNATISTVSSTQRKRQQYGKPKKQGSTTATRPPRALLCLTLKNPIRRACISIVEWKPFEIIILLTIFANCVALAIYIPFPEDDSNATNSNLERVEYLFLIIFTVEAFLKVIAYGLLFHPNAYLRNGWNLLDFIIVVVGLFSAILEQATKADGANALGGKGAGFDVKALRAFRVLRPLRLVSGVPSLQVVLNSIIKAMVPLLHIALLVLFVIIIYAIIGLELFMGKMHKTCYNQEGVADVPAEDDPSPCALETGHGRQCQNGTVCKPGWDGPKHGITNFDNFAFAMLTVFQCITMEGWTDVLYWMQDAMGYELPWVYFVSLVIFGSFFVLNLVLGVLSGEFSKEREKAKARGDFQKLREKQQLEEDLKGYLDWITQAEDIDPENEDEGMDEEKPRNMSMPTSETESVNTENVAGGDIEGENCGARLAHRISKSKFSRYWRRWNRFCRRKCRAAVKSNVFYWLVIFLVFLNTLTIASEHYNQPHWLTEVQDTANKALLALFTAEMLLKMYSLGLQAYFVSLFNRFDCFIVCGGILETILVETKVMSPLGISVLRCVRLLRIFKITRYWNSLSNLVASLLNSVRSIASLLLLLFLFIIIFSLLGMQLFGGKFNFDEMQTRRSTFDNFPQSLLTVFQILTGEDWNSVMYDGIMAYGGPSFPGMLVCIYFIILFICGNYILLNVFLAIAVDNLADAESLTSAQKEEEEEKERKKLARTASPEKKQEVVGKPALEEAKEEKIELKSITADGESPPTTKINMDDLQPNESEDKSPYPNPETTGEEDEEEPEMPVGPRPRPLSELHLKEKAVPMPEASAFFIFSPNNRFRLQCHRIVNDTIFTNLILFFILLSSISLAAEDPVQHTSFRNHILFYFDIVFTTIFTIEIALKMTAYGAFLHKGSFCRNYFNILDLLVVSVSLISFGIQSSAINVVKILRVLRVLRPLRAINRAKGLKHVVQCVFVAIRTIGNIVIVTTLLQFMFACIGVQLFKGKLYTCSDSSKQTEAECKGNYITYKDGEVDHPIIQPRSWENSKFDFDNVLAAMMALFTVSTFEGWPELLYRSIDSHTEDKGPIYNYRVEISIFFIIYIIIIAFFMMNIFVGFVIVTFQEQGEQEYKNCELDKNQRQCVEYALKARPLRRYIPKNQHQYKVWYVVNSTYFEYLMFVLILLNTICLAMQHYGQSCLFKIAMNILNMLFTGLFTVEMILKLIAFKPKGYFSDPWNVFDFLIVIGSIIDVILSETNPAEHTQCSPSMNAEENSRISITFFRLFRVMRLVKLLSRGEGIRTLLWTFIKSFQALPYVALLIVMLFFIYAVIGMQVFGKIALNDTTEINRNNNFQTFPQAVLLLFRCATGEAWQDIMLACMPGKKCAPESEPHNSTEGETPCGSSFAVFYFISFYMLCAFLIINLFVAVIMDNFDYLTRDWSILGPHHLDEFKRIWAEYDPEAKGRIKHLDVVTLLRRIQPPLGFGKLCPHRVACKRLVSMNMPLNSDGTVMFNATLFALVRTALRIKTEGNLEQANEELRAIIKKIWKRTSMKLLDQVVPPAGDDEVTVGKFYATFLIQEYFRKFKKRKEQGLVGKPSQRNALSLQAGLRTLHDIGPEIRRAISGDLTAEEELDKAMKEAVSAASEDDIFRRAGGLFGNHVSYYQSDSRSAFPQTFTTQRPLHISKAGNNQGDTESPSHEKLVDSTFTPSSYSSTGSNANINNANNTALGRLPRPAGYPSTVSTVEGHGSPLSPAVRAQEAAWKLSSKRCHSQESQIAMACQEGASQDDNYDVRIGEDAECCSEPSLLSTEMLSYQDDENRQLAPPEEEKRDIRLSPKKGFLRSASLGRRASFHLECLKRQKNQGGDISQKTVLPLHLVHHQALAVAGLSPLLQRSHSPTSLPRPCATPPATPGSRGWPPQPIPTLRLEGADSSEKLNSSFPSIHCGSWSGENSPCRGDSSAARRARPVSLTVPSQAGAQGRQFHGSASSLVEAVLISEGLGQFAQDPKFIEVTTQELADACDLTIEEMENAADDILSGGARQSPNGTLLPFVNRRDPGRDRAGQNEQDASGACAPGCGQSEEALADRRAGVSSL
Sequence (P13806 27-960 partner limits assumed, other chains not shown): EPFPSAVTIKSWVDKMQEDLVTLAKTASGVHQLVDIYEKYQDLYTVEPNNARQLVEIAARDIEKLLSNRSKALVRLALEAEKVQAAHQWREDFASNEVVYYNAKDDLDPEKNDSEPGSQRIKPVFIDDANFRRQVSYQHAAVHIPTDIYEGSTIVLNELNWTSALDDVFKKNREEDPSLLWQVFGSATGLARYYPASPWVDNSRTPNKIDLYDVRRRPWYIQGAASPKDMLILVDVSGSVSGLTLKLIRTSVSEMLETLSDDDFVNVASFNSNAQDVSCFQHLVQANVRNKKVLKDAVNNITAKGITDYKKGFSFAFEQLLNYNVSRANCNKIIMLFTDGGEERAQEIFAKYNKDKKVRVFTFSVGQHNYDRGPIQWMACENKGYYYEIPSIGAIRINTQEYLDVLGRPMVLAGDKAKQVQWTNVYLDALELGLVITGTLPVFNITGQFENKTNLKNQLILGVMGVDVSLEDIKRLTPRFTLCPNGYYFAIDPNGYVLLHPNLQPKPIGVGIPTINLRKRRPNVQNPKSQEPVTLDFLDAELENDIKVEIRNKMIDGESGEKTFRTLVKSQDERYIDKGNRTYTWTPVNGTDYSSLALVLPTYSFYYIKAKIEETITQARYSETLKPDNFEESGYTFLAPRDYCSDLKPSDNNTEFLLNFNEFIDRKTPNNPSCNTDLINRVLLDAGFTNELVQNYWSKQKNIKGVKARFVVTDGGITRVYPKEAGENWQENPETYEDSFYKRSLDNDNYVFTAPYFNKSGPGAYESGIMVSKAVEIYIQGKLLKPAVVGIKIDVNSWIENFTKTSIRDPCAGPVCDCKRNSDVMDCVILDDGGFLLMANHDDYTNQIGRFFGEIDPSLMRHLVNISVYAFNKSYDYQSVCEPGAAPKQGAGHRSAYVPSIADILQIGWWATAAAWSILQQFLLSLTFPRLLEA
Sequence (P13806 961-1106 partner limits assumed, other chains not shown): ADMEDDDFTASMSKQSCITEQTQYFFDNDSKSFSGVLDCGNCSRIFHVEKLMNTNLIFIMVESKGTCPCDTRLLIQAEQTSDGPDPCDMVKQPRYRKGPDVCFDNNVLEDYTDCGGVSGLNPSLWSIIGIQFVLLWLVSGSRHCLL
Mark each entry 1 if its IC50 sits below 600 nM, and 0 for all others.

> print(dat)
                                   compound                             assayedsystem  classassignment
1  CC1=C(C(=O)OCCCOC(=O)c2ccccc2)C(c2ccccc2Cl)C2=C(COCCS2(=O)=O)N1 (centres unmarked) [Compound 16]  calcium channel (3H-nitrendipine binding, heart membranes) (Oryctolagus cuniculus)                1
2  CC1=C(C(=O)OCCOC(=O)C(C)C)C(c2c(F)cccc2Cl)C2=C(COCCS2(=O)=O)N1 (centres unmarked) [Compound 14]  calcium channel (3H-nitrendipine binding, heart membranes) (Oryctolagus cuniculus)                1
3  CC1=C(C(=O)OCCO)C(c2c(F)cccc2Cl)C2=C(COCCS2(=O)=O)N1 (centres unmarked) [Compound 20]  calcium channel (3H-nitrendipine binding, heart membranes) (Oryctolagus cuniculus)                0
4  CC1=C(C(=O)OCCO)C(c2ccccc2Cl)C2=C(COCCS2(=O)=O)N1 (centres unmarked) [Compound 15]  calcium channel (3H-nitrendipine binding, heart membranes) (Oryctolagus cuniculus)                0
